// reported FHH TP AUC per item
system: fresh human hepatocytes; experiment: Release of active metabolite in fresh human hepatocytes; type: in vitro ADME; conditions: 10 μM compound, fresh human hepatocytes, 6, 24 and 48 hours
Give the quantity in pmol · hr/mill cells, number only.

Reference set, count: 2
Compound	Target or system	Units of measure	FHH TP AUC
CCOc1nc(N)nc2c1ncn2C1OC2COP(=O)(Oc3ccc(CC(NC(=O)OC)C(=O)OC(C)C)cc3)OC2C1(C)F (single isomer, unassigned; diastereomer 2) [Compound 13 Diastereomer 2]	fresh human hepatocytes	pmol · hr/mill cells	812
CCOc1nc(N)nc2c1ncn2[C@@H]1O[C@@H]2COP(=O)(OCCSSC(C)(C)C)O[C@H]2[C@@]1(C)F (single isomer, unassigned) [Compound 24 Diastereomer 1]	fresh human hepatocytes	pmol · hr/mill cells	3399

Please examine the following record next.
Asked: Please provide the recorded FHH TP AUC for CCOC(=O)COP1(=O)OC[C@H]2O[C@@H](n3cnc4c(OCC)nc(N)nc43)[C@](C)(F)[C@@H]2O1 (single isomer, unassigned; diastereomer 1) [Compound 7 Diastereomer 1] , tested on fresh human hepatocytes.
Given back: 377

###

experiment: Plasma pharmacokinetics following a single oral dose in CD-1 mice; format: in vivo; conditions: single oral dose 25 mg/kg in PEG 200, CD-1 male mice; given at 1 μmol/kg; 25 mg/kg
Please enter Yes where Ms Plasma 2′-MeG Cmax is greater than or equal to 7 pmol/mL at 1 μmol/kg, and No where it is lower.

Recorded results for 3 compounds are shown here.
Compound	Qualitative label
CCOc1nc(N)nc2c1ncn2[C@@H]1O[C@@H]2COP(=O)(OCCSC(=O)C(C)(C)CO)O[C@H]2[C@@]1(C)O (single isomer, unassigned) [Compound 4 Diastereomer 2]	No
CCOc1nc(N)nc2c1ncn2[C@@H]1O[C@@H]2COP(=O)(OCCCC(=O)OC(C)C)O[C@H]2[C@@]1(C)O (single isomer, unassigned) [Compound 1 Diastereomer 2]	Yes
CC(C)OC(=O)CCCOP1(=O)OC[C@H]2O[C@@H](n3cnc4c(=O)[nH]c(N)nc43)[C@](C)(F)[C@@H]2O1 (single isomer, unassigned; diastereomer 1) [Compound 6 Diastereomer 1]	No

Asked: Is reported Ms Plasma 2′-MeG Cmax greater than or equal to 7 pmol/mL at 1 μmol/kg here: CCOc1nc(N)nc2c1ncn2[C@@H]1O[C@@H]2COP(=O)(OCCSC(=O)C(C)(C)CO)O[C@H]2[C@@]1(C)F (single isomer, unassigned) [Compound 5 Diastereomer 1]
Given back: Yes

Asked: Is reported Ms Plasma 2′-MeG Cmax greater than or equal to 7 pmol/mL at 1 μmol/kg here: CCOc1nc(N)nc2c1ncn2[C@@H]1O[C@@H]2COP(=O)(OCCSC(=O)C(C)(C)CO)O[C@H]2[C@@]1(C)F (single isomer, unassigned) [Compound 5 Diastereomer 2]
Given back: Yes

Asked: Is reported Ms Plasma 2′-MeG Cmax greater than or equal to 7 pmol/mL at 1 μmol/kg here: CCOc1nc(N)nc2c1ncn2[C@@H]1O[C@@H]2COP(=O)(OCCCC(=O)OC(C)C)O[C@H]2[C@@]1(C)O (single isomer, unassigned) [Compound 1 Diastereomer 1]
Given back: No

Asked: Is reported Ms Plasma 2′-MeG Cmax greater than or equal to 7 pmol/mL at 1 μmol/kg here: CCOc1nc(N)nc2c1ncn2[C@@H]1O[C@@H]2COP(=O)(OCCSC(=O)C(C)(C)CO)O[C@H]2[C@@]1(C)O (single isomer, unassigned) [Compound 4 Diastereomer 1]
Given back: No

###

system: HCV genotype 1b replicon; assay: HCV Replicon Assay; type: cell-based; details: Zluc cells (Huh-7-derived, HCV genotype 1b replicon, luciferase reporter), 72 hours; read-out: HCV Replicon EC50
// reported EC50 per item

Reference set, count: 3
Compound	EC50
CCOC(=O)CCOP1(=O)OC[C@H]2O[C@@H](n3cnc4c(OCC)nc(N)nc43)[C@](C)(F)[C@@H]2O1 (single isomer, unassigned; diastereomer 1) [Compound 8 Diastereomer 1]	< 250 nM
CCOc1nc(N)nc2c1ncn2C1OC2COP(=O)(Oc3ccc(CC(NC(=O)OC)C(=O)OC(C)C)cc3)OC2C1(C)F (single isomer, unassigned; diastereomer 2) [Compound 13 Diastereomer 2]	< 250 nM
CCOc1nc(N)nc2c1ncn2[C@@H]1O[C@@H]2COP(=O)(OCCSC(=O)C(C)(C)CO)O[C@H]2[C@@]1(C)O (single isomer, unassigned) [Compound 4 Diastereomer 2]	< 250 nM

Asked: Please provide the recorded EC50 for CC(C)(CO)C(=O)SCCOP1(=O)OC[C@H]2O[C@@H](n3cnc4c(=O)[nH]c(N)nc43)[C@](C)(F)[C@@H]2O1 (single isomer, unassigned; diastereomer 2) [Compound 17 Diastereomer 2] , tested on HCV genotype 1b replicon.
Given back: < 250 nM

Asked: Please provide the recorded EC50 for CC(C)(CO)C(=O)SCCOP1(=O)OC[C@H]2O[C@@H](n3cnc4c(=O)[nH]c(N)nc43)[C@](C)(F)[C@@H]2O1 (single isomer, unassigned; diastereomer 1) [Compound 17 Diastereomer 1] , tested on HCV genotype 1b replicon.
Given back: 250 to 1000 nM

Asked: Please provide the recorded EC50 for CCOc1nc(N)nc2c1ncn2[C@@H]1O[C@@H]2COP(=O)(OCCSSC(C)(C)C)O[C@H]2[C@@]1(C)F (single isomer, unassigned) [Compound 24 Diastereomer 2] , tested on HCV genotype 1b replicon.
Given back: < 250 nM

Asked: Please provide the recorded EC50 for CCOc1nc(N)nc2c1ncn2[C@@H]1O[C@@H]2COP(=O)(OCCCC(=O)OC(C)C)O[C@H]2[C@@]1(C)O (single isomer, unassigned) [Compound 1 Diastereomer 2] , tested on HCV genotype 1b replicon.
Given back: < 250 nM

Asked: Please provide the recorded EC50 for CC(=O)OCC(C)(C)C(=O)SCCOP1(=O)OC[C@H]2O[C@@H](n3cnc4c(=O)[nH]c(N)nc43)[C@](C)(F)[C@@H]2O1 (single isomer, unassigned; diastereomer 1) [Compound 18 Diastereomer 1] , tested on HCV genotype 1b replicon.
Given back: 250 to 1000 nM

Asked: Please provide the recorded EC50 for CCOC(=O)COP1(=O)OC[C@H]2O[C@@H](n3cnc4c(OCC)nc(N)nc43)[C@](C)(F)[C@@H]2O1 (single isomer, unassigned; diastereomer 1) [Compound 7 Diastereomer 1] , tested on HCV genotype 1b replicon.
Given back: < 250 nM

###

test system: fresh human hepatocytes; assay: Release of active metabolite in fresh human hepatocytes; assay type: in vitro ADME; settings: 10 μM compound, fresh human hepatocytes, 6, 24 and 48 hours
MET if FHH TP AUC is below 3000 pmol · hr/mill cells. NOT MET if not; exact matches included in NOT MET.

Recorded results for 5 compounds are shown here.
Compound	Qualitative label
CCOc1nc(N)nc2c1ncn2[C@@H]1O[C@@H]2COP(=O)(OCCC(=O)OC(C)C)O[C@H]2[C@@]1(C)O (single isomer, unassigned; diastereomer 2) [Compound 22 Diastereomer 2]	MET
CCOc1nc(N)nc2c1ncn2[C@@H]1O[C@@H]2COP(=O)(OC[C@H](NC(=O)OC)C(=O)OC(C)C)O[C@H]2[C@@]1(C)F (stereo partly shown)	MET
CCOc1nc(N)nc2c1ncn2[C@@H]1O[C@@H]2COP(=O)(OCCCC(=O)OC(C)C)O[C@H]2[C@@]1(C)O (single isomer, unassigned) [Compound 1 Diastereomer 1]	NOT MET
CCOc1nc(N)nc2c1ncn2[C@@H]1O[C@@H]2COP(=O)(OCCSC(=O)C(C)(C)CO)O[C@H]2[C@@]1(C)O (single isomer, unassigned) [Compound 4 Diastereomer 1]	NOT MET
CCOc1nc(N)nc2c1ncn2C1OC2COP(=O)(Oc3ccc(CC(NC(=O)OC)C(=O)OC(C)C)cc3)OC2C1(C)F (single isomer, unassigned; diastereomer 1) [Compound 13 Diastereomer 1]	MET

Now look at this entry.
Asked: Record CCOc1nc(N)nc2c1ncn2[C@@H]1O[C@@H]2COP(=O)(OCCCC(=O)OC(C)C)O[C@H]2[C@@]1(C)F (single isomer, unassigned; diastereomer 2) [Compound 3 Diastereomer 2] : is its FHH TP AUC strictly below 3000 pmol · hr/mill cells?
Given back: NOT MET

###

assay: Stability in simulated intestinal fluid; format: in vitro ADME; settings: 100 μM, 2 hours at 37° C., percent of the peak area at time zero
Outcome measure: Stability SIF (%)
Give the quantity in %, number only.

Reference set, count: 3
Compound	Stability SIF [%]
CCOc1nc(N)nc2c1ncn2[C@@H]1O[C@@H]2COP(=O)(OCCSC(=O)C(C)(C)CO)O[C@H]2[C@@]1(C)O (single isomer, unassigned) [Compound 4 Diastereomer 2]	77
CCOc1nc(N)nc2c1ncn2[C@@H]1O[C@@H]2COP(=O)(OC[C@H](C)NC(=O)OC)O[C@H]2[C@@]1(C)F (single isomer, unassigned; diastereomer 2) [Compound 9 Diastereomer 2]	105
CCOc1nc(N)nc2c1ncn2[C@@H]1O[C@@H]2COP(=O)(OCCC(=O)OC(C)C)O[C@H]2[C@@]1(C)F (single isomer, unassigned; diastereomer 1) [Compound 21 Diastereomer 1]	91

Asked: Which value of Stability SIF has been reported for CCOc1nc(N)nc2c1ncn2[C@@H]1O[C@@H]2COP(=O)(OCCSC(=O)C(C)(C)CO)O[C@H]2[C@@]1(C)F (single isomer, unassigned) [Compound 5 Diastereomer 1] in the records?
Given back: 86

Asked: Which value of Stability SIF has been reported for CCOc1nc(N)nc2c1ncn2[C@@H]1O[C@@H]2COP(=O)(OCCSSC(C)(C)C)O[C@H]2[C@@]1(C)F (single isomer, unassigned) [Compound 24 Diastereomer 1] in the records?
Given back: 90
